- TEST SYSTEM: T1, Axl protein (human, UniProt P30530 26-451)
- T1 construct: extracellular domain; also called human Axl; hAxl
- T1 sequence (looked up): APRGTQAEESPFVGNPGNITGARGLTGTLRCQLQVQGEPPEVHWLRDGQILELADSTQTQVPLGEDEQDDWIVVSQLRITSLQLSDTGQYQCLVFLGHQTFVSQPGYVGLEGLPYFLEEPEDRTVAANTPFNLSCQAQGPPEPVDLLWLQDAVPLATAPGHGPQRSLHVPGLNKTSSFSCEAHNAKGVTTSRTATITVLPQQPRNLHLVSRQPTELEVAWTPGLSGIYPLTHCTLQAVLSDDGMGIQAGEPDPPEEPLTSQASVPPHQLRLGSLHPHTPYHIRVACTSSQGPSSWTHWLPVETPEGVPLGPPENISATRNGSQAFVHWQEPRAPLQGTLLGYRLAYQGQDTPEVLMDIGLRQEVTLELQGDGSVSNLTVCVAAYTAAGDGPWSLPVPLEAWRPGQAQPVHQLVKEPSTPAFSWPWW
- ASSAY PROTOCOL: ELISA, 1:3 dilution, pH 6.0 over pH 7.4
MEASUREMENT NAME: Affinity ELISA CPE mutant ratio (1:3, pH 6.0/7.4) (ratio)
Hi! Could you send only the number? It should be in ratio, unit omitted.

BINDER	MEASURE UNIT	QUANTITATIVE RESULT
HC-Y101N (antibody, V domains shown) VH: EVQLVQSGAEVKKPGATVKISCKVSGYSFTGHTMNWIRQPPGKGLEWIGLIKPSNGGTSYNQKFKGRVTISADKSISTAYLQWSSLKASDTAMYYCAHGHNESYFAMDYWGQGTLVTVSS VL: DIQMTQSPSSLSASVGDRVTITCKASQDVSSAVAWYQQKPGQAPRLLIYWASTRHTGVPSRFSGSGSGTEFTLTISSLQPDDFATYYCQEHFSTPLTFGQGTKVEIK	ratio	2.17

As a next step, examine the binder that follows.
Query block: Write down Affinity ELISA CPE mutant ratio (1:3, pH 6.0/7.4) measured for item HC-W110N (antibody, V domains shown) VH: EVQLVQSGAEVKKPGATVKISCKVSGYSFTGHTMNWIRQPPGKGLEWIGLIKPSNGGTSYNQKFKGRVTISADKSISTAYLQWSSLKASDTAMYYCAHGHYESYFAMDYNGQGTLVTVSS VL: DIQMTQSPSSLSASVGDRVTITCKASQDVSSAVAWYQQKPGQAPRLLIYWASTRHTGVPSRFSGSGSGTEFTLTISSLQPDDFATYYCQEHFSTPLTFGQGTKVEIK
Result block: 4.3
